Provenance of the data: paper PMC5367682

Kd overview
- TESTED_SYSTEM: PaDsbA1 (Pseudomonas aeruginosa, UniProt P0C2B2)
- Construct: N-terminal His6 tag cut with TEV; E. coli BL21(DE3) Gold; 15N-labelled for NMR, oxidized; NMR structure residues 3-192
- Sequence (P0C2B2 22-211): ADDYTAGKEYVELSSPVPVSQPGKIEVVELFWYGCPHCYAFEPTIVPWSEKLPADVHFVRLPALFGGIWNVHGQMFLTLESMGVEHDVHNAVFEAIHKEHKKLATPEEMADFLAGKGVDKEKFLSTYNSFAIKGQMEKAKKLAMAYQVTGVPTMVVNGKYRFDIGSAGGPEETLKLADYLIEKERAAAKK
- ASSAY_PROTOCOL: […]-HSQC NMR titration, CSP fitted to one-site model
Express it in µM; write the number only.

Cc1ccccc1CSc1nncn1N    900
Nc1ccc(-c2nc3ccccc3[nH]2)cc1    2500

Please look at the following compound next.
Request: Requested read-out: Kd. Entry: NNC(=O)c1cc(C2CC2)n[nH]1
Result: 2700

###

- TESTED_SYSTEM: PaDsbA1 (Pseudomonas aeruginosa, UniProt P0C2B2)
- Construct: N-terminal His6 tag cut with TEV; E. coli BL21(DE3) Gold; 15N-labelled for NMR, oxidized; NMR structure residues 3-192
- ASSAY_PROTOCOL: […]-HSQC NMR titration, CSP fitted to one-site model
Label key: Satisfied means Kd under 4 mM; Not satisfied means Kd of 4 mM or more.

Request: A record lists Cc1cc(C(=O)Nc2cccc(O)c2)c(C)o1 . Is its Kd below 4 mM?
Result: Satisfied

Request: Given the entry Oc1nc2ccccc2s1 , would its reported Kd be below 4 mM?
Result: Satisfied

Request: Problem: For the compound Nc1cccc(C(=O)Nc2ccccc2Cl)c1 , is Kd under 4 mM?
Result: Not satisfied

Request: Regarding CNCc1ccc(-c2cccc(Cl)c2)o1 , kindly confirm whether its Kd is beneath 4 mM.
Result: Not satisfied

###

- TESTED_SYSTEM: EcDsbA (Escherichia coli)
- Sequence (P0AEG4 20-208): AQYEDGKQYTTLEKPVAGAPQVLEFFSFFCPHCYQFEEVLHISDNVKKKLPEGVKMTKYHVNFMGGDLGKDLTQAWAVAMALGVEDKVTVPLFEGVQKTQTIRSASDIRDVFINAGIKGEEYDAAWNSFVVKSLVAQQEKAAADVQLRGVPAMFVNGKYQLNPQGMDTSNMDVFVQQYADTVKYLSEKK
METRIC: Kd

Request: What value of Kd has been recorded for this entry: COc1ccc(-c2nc(N)sc2C)cc1
Result: > 5 mM
